Cited source: patent US11180474B2

Target: human TLR8 (Homo sapiens, UniProt Q9NR97)
Sequence (Q9NR97 27-1041): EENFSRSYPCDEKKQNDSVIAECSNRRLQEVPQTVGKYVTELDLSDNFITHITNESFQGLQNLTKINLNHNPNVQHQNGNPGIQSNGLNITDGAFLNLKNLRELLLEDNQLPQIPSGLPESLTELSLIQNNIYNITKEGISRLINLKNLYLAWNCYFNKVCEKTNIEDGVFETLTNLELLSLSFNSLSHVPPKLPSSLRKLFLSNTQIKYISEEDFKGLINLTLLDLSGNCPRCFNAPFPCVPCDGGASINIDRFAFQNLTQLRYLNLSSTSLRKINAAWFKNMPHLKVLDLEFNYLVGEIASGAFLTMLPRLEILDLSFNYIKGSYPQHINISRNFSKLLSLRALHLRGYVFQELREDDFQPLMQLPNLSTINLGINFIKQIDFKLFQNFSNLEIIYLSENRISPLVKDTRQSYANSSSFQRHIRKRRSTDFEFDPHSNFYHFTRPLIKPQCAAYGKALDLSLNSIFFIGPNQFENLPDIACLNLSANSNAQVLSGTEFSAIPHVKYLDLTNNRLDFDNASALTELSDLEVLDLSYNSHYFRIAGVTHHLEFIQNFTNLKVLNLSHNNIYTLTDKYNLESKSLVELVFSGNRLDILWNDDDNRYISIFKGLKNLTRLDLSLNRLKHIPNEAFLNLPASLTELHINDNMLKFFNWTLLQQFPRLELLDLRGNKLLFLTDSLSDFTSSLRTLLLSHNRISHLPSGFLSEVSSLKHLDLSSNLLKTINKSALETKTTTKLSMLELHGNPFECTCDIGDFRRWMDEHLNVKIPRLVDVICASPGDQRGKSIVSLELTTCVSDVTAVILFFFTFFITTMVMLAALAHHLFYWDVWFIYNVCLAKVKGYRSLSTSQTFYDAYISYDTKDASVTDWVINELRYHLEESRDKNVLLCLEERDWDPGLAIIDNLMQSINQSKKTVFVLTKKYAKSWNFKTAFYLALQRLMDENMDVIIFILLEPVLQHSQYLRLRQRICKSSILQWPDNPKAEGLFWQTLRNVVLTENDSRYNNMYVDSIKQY
Test: TLR8 inhibition reporter assay (HEK-Blue cells, SEAP reporter, R848 stimulation)
Details: HEK-Blue cells overexpressing human TLR8, R848 15.9 μM
Protocol: TLR7/8/9 Inhibition Reporter Assays Briefly, cells are seeded into Greiner 384 well plates (15000 cells per well for TLR7, 20,000 for TLR8 and 25,000 for TLR9) and then treated with test compounds in DMSO to yield a final dose response concentration range of 0.05 nM-50 μM. […] The percent inhibition is determined as the % reduction in the HEK-Blue signal present in wells treated with agonist plus DMSO alone compared to wells treated with a known inhibitor.
recorded.metric: IC50 (nM)

[P] CCc1c(-c2ccc(OC)c(OC)c2)[nH]c2ccc(C3CCN(C(=O)CN(C)C)CC3)cc12
[Q] COc1ccc(-c2[nH]c3ccc(C4CCN(C(=O)CNC[C@@H](O)CO)CC4)cc3c2C)cc1OC
IN: Please state the entry with greater IC50 among P and Q . Identify your selection by its label.
OUT: Q
